Source: patent US12215173B2

# ASSAYED_SYSTEM: recombinant human kappa (KOR) opioid receptor (Homo sapiens (Human))
# RUN_DESCRIPTION: biochemical
# Assay type: binding
# STUDY_CONDITIONS: HEK293 cell membranes, 0.5 nM [3H]diprenorphine
pIC50: −log10 of the molar value. Square brackets hold non-standard residues; d marks the D form. Peptide text beside a SMILES is read from it. * marks the point of attachment. Piperidin1yl(4-NH2,4-CO2Me) = COC(=O)C1(N)CCN(*)CC1; Pyrrolidinyl(3-NH2,3-CO2Me) = COC(=O)C1(N)CCN(*)C1; dAla(cPr) = N[C@H](CC1CC1)C(=O)O
Would you mind labelling by pIC50? At or over 9 is Y, under is N.

COMPOUND	ASSIGNED_LABEL
COC(=O)C1(N)CCN(C(=O)[C@@H](CCCNC(=N)N)NC(=O)[C@H]2CCCN2C(=O)[C@@H](Cc2ccccc2)NC(=O)[C@H](N)Cc2ccccc2)C1 (some centres unmarked) [Compound 28] (H-[dF][dF][dP][dR]-{Pyrrolidinyl(3-NH2,3-CO2Me)})	N
CCOC(=O)C(=O)NC1CCN(C(=O)[C@@H](CCCCN)NC(=O)[C@@H](CC(C)C)NC(=O)[C@@H](Cc2ccccc2)NC(=O)[C@H](N)Cc2ccccc2)CC1	Y
CC(C)C[C@@H](NC(=O)[C@@H](Cc1ccccc1)NC(=O)[C@H](N)Cc1ccccc1)C(=O)N[C@H](CCCCN)C(=O)N1CCC(N)(C(=O)OC2CC2)C1 (some centres unmarked)	Y
COC(=O)[C@@H](N)CNC(=O)[C@@H](CCCCN)NC(=O)[C@@H](CC(C)C)NC(=O)[C@@H](Cc1ccccc1)NC(=O)[C@H](N)Cc1ccccc1	N
CC(C)C[C@@H](NC(=O)[C@@H](Cc1ccccc1)NC(=O)[C@H](N)Cc1ccccc1)C(=O)N[C@H](CCCCN)C(=O)NCc1n[nH]c(=O)[nH]1	Y
COCCN(CCOC)C(=O)[C@@H](CCCCN)NC(=O)[C@@H](CC(C)C)NC(=O)[C@@H](Cc1ccccc1)NC(=O)[C@H](N)Cc1ccccc1	N
CC(C)C[C@@H](NC(=O)[C@@H](Cc1ccccc1)NC(=O)[C@H](N)Cc1ccccc1)C(=O)N[C@H](CCCCN)C(=O)N1CCNC(=O)C1	Y
CC(C)C[C@@H](NC(=O)[C@@H](Cc1ccccc1)NC(=O)[C@H](N)Cc1ccccc1)C(=O)N[C@H](CCCCN)C(=O)N1CCC(NC(=O)CNC(N)=O)CC1	Y
COC(=O)C1(N)CCN(C(=O)[C@@H](CCCNC(=N)N)NC(=O)[C@@H](CC2CC2)NC(=O)[C@@H](Cc2ccccc2)NC(=O)[C@H](N)Cc2ccccc2)CC1 [Compound 126] (H-[dF][dF][dAla(cPr)][dR]-{Piperidin1yl(4-NH2,4-CO2Me)})	Y
CC(C)C[C@@H](NC(=O)[C@@H](Cc1ccccc1)NC(=O)[C@H](N)Cc1ccccc1)C(=O)N[C@H](CCCCN)C(=O)N1CCC2(CC1)NC(=O)NC2=O	Y
COC(=O)C1(N)CCN(C(=O)[C@@H](CCCCN)NC(=O)[C@H]2CCCN2C(=O)[C@@H](Cc2ccccc2)NC(=O)[C@H](N)Cc2ccccc2)CC1 [Compound 89] (H-[dF][dF][dP][dK]-{Piperidin1yl(4-NH2,4-CO2Me)})	N
CC(C)C[C@@H](NC(=O)[C@@H](Cc1ccccc1)NC(=O)[C@H](N)Cc1ccccc1)C(=O)N[C@H](CCCCN)C(=O)N1CCOCCOCCOCC1	Y
CC(C)C[C@@H](NC(=O)[C@@H](Cc1ccccc1)NC(=O)[C@H](N)Cc1ccccc1)C(=O)N[C@H](CCCCN)C(=O)N1CCN(C(=O)NC2CC2)CC1	Y
CCNC(=O)C(=O)N1CCC(NC(=O)[C@@H](CCCCN)NC(=O)[C@@H](CC(C)C)NC(=O)[C@@H](Cc2ccccc2)NC(=O)[C@H](N)Cc2ccccc2)CC1	Y
CC(C)C[C@@H](NC(=O)[C@@H](Cc1ccccc1)NC(=O)[C@H](N)Cc1ccccc1)C(=O)N[C@H](CCCCN)C(=O)N1CCC(NC(=O)C(=O)O)CC1	Y
COC(=O)/C=C/C(=O)N1CCC(NC(=O)[C@@H](CCCCN)NC(=O)[C@@H](CC(C)C)NC(=O)[C@@H](Cc2ccccc2)NC(=O)[C@H](N)Cc2ccccc2)CC1	N
CC(=O)N[C@@H](CCC(N)=O)C(=O)NC1CCN(C(=O)[C@@H](CCCCN)NC(=O)[C@@H](CC(C)C)NC(=O)[C@@H](Cc2ccccc2)NC(=O)[C@H](N)Cc2ccccc2)CC1	Y
CC(C)C[C@@H](NC(=O)[C@@H](Cc1ccccc1)NC(=O)[C@H](N)Cc1ccccc1)C(=O)N[C@H](CCCCN)C(=O)NCc1cccnc1C(=O)O	N
